# Tested on: SH-SY5Y M-currents (KCNQ2, KCNQ3 and KCNQ5)
# method_description: SH-SY5Y native cell line FLIPR assay (voltage-sensitive dye DiBAC)
# Format: cell-based, mouse neuroblastoma, rat glioma hybrid cell line
# condition_notes: FLIPR assay, SH-SY5Y native cell line; Table 2; read-out: SH-SY5Y EC50
# Protocol: […] Differentiated SH-SY5Y cells were loaded with voltage-sensitive dye by incubation in Earls Balanced Salt Solution (EBSS) containing 5 mM DiBAC for 1 h. […] Changes in fluorescence were measured every 30 s for 25 min. The maximum change in fluorescence was measured and expressed as a percentage of the maximum response obtained in the presence of a positive control agent.
Some molecules, each annotated with its measured EC50.

molecule=O=C(Cc1ccccc1)Nc1nc2ccc(F)cn2c1-c1ccc(F)cc1F result="500 to 3000 nM"

# evaluate next
For the molecule shown here, `O=C(CC(F)(F)F)Nc1nc2ccc(F)cn2c1-c1cccc(C(F)(F)F)c1` , give the reported EC50.
500 to 3000 nM

* * *

# Tested on: SH-SY5Y M-currents (KCNQ2, KCNQ3 and KCNQ5)
# method_description: SH-SY5Y native cell line FLIPR assay (voltage-sensitive dye DiBAC)
# Assay type: cell-based, mouse neuroblastoma, rat glioma hybrid cell line
# condition_notes: FLIPR assay, SH-SY5Y native cell line; Table 2; read-out: SH-SY5Y EC50
pEC50: −log10 of the molar value.
measured_quantity: pEC50

molecule=O=C(Nc1nc2ccc(F)cn2c1-c1ccc(OC(F)(F)F)cc1)C1CCCC1 tested_on="SH-SY5Y M-currents (KCNQ2, KCNQ3 and KCNQ5)" measured_quantity=pEC50 result="> 6.30"
molecule=CC(C)CC(=O)Nc1nc2ccc(F)cn2c1-c1ccc(F)cc1 tested_on="SH-SY5Y M-currents (KCNQ2, KCNQ3 and KCNQ5)" measured_quantity=pEC50 result="5.52 to 6.30"

For the molecule shown here, `O=C(CCC(F)(F)F)Nc1nc2ccc(F)cn2c1-c1cccc(OC(F)(F)F)c1` , give the reported pEC50.
5.52 to 6.30

For the molecule shown here, `O=C(Cc1cccc(Cl)c1)Nc1nc2ccc(F)cn2c1-c1ccc(OC(F)(F)F)c(F)c1` , give the reported pEC50.
> 6.30

For the molecule shown here, `O=C(CC1CCOCC1)Nc1nc2ccc(F)cn2c1-c1ccc(OC(F)(F)F)cc1` , give the reported pEC50.
5.52 to 6.30

For the molecule shown here, `Cc1ccc2nc(NC(=O)Cc3ccc(F)cc3)c(-c3cccc(C(F)(F)F)c3)n2n1` , give the reported pEC50.
> 6.30

For the molecule shown here, `CC(C)(C)CCC(=O)Nc1nc2ccc(F)cn2c1-c1cccc(OC(F)(F)F)c1` , give the reported pEC50.
> 6.30

For the molecule shown here, `O=C(CCC(F)(F)F)Nc1nc2cc(C(F)(F)F)ccn2c1-c1ccccc1` , give the reported pEC50.
5.00 to 5.52

* * *

# System: SH-SY5Y M-currents (KCNQ2, KCNQ3 and KCNQ5)
# method_description: SH-SY5Y native cell line FLIPR assay (voltage-sensitive dye DiBAC)
# Type: cell-based, mouse neuroblastoma, rat glioma hybrid cell line
# condition_notes: FLIPR assay, SH-SY5Y native cell line; Table 2; read-out: SH-SY5Y EC50
pEC50: −log10 of the molar value.
measured_quantity: pEC50

Reference set, count: 2
compound=O=C(Nc1nc2ccc(F)cn2c1-c1cccc(C(F)(F)F)c1)C1CCCC1 result="> 6.30"
compound=O=C(Cc1ccc(Cl)cc1)Nc1nc2ccc(F)cn2c1-c1ccc(OC(F)(F)F)c(F)c1 result="> 6.30"

SH-SY5Y M-currents (KCNQ2, KCNQ3 and KCNQ5) / pEC50 / CC(C(=O)Nc1nc2cc(C(F)(F)F)ccn2c1-c1ccc(F)cc1)c1ccccc1 (stereo not drawn) : value?
5.52 to 6.30

SH-SY5Y M-currents (KCNQ2, KCNQ3 and KCNQ5) / pEC50 / CC(CC(=O)Nc1nc2cc(Cl)c(Cl)cn2c1-c1ccc(OC(F)(F)F)cc1)C(F)(F)F (stereo not drawn) : value?
5.52 to 6.30

SH-SY5Y M-currents (KCNQ2, KCNQ3 and KCNQ5) / pEC50 / `O=C(Cc1ccc(F)cc1)Nc1nc2cc(C(F)(F)F)ccn2c1-c1ccccc1` : value?
> 6.30

SH-SY5Y M-currents (KCNQ2, KCNQ3 and KCNQ5) / pEC50 / `O=C(Cc1ccc(F)cc1)Nc1nc2ccc(F)cn2c1-c1cccc(Cl)c1` : value?
> 6.30
